- Experimental system: rα4β4 nAChR (Rattus norvegicus, UniProt P09483+P12392)
- Construct: expressed in transfected cells; host or cells: Xenopus laevis oocytes injected with cRNA
- Sequence (P12392 21-495): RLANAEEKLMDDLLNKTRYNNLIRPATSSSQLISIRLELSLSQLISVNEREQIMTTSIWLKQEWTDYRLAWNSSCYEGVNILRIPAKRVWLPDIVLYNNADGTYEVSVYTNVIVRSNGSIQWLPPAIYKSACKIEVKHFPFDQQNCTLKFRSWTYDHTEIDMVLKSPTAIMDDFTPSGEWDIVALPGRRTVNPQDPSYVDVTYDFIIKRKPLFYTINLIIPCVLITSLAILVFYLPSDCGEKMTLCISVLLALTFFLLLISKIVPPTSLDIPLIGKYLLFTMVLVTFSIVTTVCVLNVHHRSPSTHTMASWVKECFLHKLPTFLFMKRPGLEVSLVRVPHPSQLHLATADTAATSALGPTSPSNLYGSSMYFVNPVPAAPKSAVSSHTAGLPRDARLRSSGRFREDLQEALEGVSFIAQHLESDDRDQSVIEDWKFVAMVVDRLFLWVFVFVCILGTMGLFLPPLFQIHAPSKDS
- Sequence (P09483 31-630): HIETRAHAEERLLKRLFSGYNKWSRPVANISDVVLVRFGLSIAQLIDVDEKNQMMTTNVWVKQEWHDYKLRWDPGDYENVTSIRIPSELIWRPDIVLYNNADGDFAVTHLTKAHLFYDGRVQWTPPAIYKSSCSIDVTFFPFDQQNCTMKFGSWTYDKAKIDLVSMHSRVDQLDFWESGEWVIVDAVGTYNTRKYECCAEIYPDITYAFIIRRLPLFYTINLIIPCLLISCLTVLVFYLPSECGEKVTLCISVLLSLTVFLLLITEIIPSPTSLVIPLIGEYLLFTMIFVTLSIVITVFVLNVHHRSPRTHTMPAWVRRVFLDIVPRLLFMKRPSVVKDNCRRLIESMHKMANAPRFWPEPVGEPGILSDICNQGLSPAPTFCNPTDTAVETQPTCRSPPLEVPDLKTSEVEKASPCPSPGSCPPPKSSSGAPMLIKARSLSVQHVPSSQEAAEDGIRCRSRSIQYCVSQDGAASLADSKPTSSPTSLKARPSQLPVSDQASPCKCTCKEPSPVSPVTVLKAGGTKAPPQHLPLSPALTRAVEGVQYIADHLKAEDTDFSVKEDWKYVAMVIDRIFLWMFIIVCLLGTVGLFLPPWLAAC
- Test summary: ACh-evoked currents in Xenopus oocytes (TEVC), rα4β4
- Type: cell-based
pIC50: −log10 of the molar value. Bridges are numbered along the chain shown (N, C = ends). Where no end group is shown, it is not given here.
Endpoint: pIC50

Query block: Look up pIC50 for this sequence: GCKKLNSYCTRQHRECCHGLVCRRPDYGIGRGILWKCTRARK (disulfide 2-17, 9-22, 16-37) [Ms11a-3]
Result block: < 5.00

====

- Experimental system: mα1β1δε nAChR (Mus musculus, UniProt P02716+P04756+P09690+P20782)
- Construct: expressed in transfected cells; host or cells: Xenopus laevis oocytes injected with cRNA
- Sequence (P20782 21-493): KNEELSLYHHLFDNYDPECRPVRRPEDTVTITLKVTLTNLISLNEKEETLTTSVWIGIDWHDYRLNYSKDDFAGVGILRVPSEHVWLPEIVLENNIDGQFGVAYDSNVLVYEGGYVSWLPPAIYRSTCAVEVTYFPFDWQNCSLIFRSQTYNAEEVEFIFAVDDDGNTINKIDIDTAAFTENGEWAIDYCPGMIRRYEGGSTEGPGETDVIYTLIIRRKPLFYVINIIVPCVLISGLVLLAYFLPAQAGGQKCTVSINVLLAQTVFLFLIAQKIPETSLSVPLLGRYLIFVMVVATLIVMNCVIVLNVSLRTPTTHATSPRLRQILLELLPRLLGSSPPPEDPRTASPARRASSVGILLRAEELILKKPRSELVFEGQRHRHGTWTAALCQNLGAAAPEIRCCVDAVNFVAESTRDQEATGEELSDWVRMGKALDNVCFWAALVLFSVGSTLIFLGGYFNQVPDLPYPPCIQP
- Sequence (P04756 21-457): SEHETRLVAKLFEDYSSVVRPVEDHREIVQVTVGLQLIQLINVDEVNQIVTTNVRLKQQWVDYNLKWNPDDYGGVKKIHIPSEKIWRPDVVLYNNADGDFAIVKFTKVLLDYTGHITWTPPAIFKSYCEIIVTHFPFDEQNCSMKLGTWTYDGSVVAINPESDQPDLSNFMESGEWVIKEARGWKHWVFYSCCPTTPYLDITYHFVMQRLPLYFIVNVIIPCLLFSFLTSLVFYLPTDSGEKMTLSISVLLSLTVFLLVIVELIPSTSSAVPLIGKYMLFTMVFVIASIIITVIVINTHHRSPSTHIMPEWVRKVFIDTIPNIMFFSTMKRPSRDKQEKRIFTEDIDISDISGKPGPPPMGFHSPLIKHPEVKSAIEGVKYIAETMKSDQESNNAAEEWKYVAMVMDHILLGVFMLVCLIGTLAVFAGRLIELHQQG
- Sequence (P09690 24-501): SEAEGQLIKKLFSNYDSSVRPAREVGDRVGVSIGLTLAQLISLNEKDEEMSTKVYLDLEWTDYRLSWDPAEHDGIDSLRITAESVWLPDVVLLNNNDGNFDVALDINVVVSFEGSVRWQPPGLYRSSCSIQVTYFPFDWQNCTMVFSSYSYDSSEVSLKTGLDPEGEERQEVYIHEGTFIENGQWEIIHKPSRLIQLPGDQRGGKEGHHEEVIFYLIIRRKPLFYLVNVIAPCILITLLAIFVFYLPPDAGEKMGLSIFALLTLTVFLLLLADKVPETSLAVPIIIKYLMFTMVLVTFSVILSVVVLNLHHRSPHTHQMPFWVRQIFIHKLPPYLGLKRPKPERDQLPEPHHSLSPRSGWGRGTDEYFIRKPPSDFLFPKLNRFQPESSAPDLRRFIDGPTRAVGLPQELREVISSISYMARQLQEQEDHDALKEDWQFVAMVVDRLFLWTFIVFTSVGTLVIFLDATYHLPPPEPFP
- Sequence (P02716 25-520): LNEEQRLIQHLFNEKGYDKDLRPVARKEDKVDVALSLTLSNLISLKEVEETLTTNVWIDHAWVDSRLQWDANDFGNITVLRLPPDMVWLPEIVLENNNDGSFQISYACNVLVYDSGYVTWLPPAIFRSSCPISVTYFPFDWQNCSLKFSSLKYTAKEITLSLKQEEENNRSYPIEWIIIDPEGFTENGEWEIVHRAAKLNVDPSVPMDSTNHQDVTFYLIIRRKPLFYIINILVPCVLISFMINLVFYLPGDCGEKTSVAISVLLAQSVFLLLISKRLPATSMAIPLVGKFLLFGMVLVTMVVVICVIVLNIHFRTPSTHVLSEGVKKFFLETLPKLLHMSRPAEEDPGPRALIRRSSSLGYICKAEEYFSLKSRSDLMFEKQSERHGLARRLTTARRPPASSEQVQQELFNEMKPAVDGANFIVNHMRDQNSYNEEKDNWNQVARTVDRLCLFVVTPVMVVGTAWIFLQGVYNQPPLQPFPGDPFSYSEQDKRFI
- Test summary: ACh-evoked currents in Xenopus oocytes (TEVC), mα1β1δε
- Format: cell-based
Bridges are numbered along the chain shown (N, C = ends). Where no end group is shown, it is not given here.
Endpoint: IC50
Answer format: value, then unit.

Query block: Look up IC50 for this sequence: GCKKLNSYCTRQHRECCHGLVCRRPDYGIGRGILWKCTRARK (disulfide 2-17, 9-22, 16-37) [Ms11a-3]
Result block: 1210 nM

====

- Experimental system: rα3β4 nAChR (Rattus norvegicus, UniProt P04757+P12392)
- Construct: expressed in transfected cells; host or cells: Xenopus laevis oocytes injected with cRNA
- Sequence (P04757 26-499): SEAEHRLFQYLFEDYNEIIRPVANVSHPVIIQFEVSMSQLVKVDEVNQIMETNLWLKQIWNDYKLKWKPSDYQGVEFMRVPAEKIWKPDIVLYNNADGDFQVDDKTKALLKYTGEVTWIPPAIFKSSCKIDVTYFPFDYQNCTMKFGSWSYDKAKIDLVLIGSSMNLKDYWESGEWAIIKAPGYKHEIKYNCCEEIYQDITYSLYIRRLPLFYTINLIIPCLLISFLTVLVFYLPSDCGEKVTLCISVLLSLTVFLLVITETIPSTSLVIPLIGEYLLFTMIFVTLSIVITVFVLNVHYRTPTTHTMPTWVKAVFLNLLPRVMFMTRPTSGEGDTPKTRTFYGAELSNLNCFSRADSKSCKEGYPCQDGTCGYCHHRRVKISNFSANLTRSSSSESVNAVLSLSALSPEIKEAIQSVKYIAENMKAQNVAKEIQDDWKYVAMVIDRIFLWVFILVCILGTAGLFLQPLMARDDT
- Sequence (P12392 21-495): as the sequence (P12392 21-495) above
- Test summary: ACh-evoked currents in Xenopus oocytes (TEVC), rα3β4
- Assay type: cell-based
Bridges are numbered along the chain shown (N, C = ends). Where no end group is shown, it is not given here.
Endpoint: pIC50
One number for each entry, as −log10 of the molar value.

Query block: Look up pIC50 for this sequence: GCKKLNSYCTRQHRECCHGLVCRRPDYGIGRGILWKCTRARK (disulfide 2-17, 9-22, 16-37) [Ms11a-3]
Result block: 5.29

====

- Experimental system: rα9α10 nAChR (Rattus norvegicus, UniProt P43144+Q9JLB5)
- Construct: expressed in transfected cells; host or cells: Xenopus laevis oocytes injected with cRNA
- Test summary: ACh-evoked currents in Xenopus oocytes (TEVC), rα9α10
- Format: cell-based
Bridges are numbered along the chain shown (N, C = ends). Where no end group is shown, it is not given here.
Endpoint: IC50 (nM)
Numbers only, in nM.

Query block: Give IC50 (rα9α10 nAChR (Rattus norvegicus, UniProt P43144+Q9JLB5)) of the following sequence: GCKKLNSYCTRQHRECCHGLVCRRPDYGIGRGILWKCTRARK (disulfide 2-17, 9-22, 16-37) [Ms11a-3]
Result block: 202

====

- Experimental system: rα2β4 nAChR (Rattus norvegicus, UniProt P12389+P12392)
- Construct: expressed in transfected cells; host or cells: Xenopus laevis oocytes injected with cRNA
- Sequence (P12392 21-495, one chain of several): as the sequence (P12392 21-495) above
- Test summary: ACh-evoked currents in Xenopus oocytes (TEVC), rα2β4
- Assay type: cell-based
Bridges are numbered along the chain shown (N, C = ends). Where no end group is shown, it is not given here.
Endpoint: IC50

Query block: Look up IC50 for this sequence: GCKKLNSYCTRQHRECCHGLVCRRPDYGIGRGILWKCTRARK (disulfide 2-17, 9-22, 16-37) [Ms11a-3]
Result block: > 10 µM

====

- Experimental system: rα2β2 nAChR (Rattus norvegicus, UniProt P12389+P12390)
- Construct: expressed in transfected cells; host or cells: Xenopus laevis oocytes injected with cRNA
- Sequence (P12389 28-511): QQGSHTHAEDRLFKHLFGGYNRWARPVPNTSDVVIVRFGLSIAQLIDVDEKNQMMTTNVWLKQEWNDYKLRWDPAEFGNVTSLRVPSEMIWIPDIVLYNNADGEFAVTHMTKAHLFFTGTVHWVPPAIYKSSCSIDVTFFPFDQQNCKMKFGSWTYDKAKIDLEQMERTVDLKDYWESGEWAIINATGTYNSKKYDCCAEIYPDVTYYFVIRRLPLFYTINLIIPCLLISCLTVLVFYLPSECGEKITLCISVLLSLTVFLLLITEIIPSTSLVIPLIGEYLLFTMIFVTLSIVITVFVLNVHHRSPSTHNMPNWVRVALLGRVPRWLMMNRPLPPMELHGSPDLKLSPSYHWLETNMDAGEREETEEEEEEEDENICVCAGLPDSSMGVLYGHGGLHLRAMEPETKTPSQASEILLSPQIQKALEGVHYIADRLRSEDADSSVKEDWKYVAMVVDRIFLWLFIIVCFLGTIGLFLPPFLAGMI
- Sequence (P12390 25-500): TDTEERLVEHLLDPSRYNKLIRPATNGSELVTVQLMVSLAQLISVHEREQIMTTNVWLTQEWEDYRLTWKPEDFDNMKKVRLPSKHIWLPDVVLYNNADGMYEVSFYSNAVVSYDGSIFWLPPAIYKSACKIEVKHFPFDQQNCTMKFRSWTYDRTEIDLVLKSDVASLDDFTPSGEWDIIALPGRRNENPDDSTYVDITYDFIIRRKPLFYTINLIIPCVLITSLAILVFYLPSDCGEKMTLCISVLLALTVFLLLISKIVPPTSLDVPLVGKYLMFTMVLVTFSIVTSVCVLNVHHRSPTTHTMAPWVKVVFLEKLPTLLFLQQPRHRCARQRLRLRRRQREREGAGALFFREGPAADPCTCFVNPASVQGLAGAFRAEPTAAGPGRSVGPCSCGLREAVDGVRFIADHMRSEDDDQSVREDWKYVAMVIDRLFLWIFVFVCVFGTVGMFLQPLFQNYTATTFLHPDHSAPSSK
- Test summary: ACh-evoked currents in Xenopus oocytes (TEVC), rα2β2
- Type: cell-based
Bridges are numbered along the chain shown (N, C = ends). Where no end group is shown, it is not given here.
Endpoint: IC50

Query block: Look up IC50 for this sequence: GCKKLNSYCTRQHRECCHGLVCRRPDYGIGRGILWKCTRARK (disulfide 2-17, 9-22, 16-37) [Ms11a-3]
Result block: > 10 µM

====

- Experimental system: rα7 nAChR (Rattus norvegicus, UniProt Q05941)
- Construct: expressed in transfected cells; host or cells: Xenopus laevis oocytes injected with cRNA
- Sequence (Q05941 23-502): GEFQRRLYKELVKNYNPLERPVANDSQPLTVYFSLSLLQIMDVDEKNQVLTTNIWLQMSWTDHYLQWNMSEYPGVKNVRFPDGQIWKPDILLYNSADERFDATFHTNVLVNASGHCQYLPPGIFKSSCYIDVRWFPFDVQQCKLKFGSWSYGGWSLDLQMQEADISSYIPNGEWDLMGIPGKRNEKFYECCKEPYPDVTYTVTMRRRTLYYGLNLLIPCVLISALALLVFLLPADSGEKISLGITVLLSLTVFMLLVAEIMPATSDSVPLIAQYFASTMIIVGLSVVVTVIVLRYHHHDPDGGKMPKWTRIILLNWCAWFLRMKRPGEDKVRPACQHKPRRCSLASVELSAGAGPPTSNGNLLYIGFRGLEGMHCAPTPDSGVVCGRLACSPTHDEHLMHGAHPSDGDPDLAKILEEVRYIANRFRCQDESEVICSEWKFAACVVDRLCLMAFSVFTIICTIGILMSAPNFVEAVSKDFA
- Test summary: ACh-evoked currents in Xenopus oocytes (TEVC), rα7
- Format: cell-based
Bridges are numbered along the chain shown (N, C = ends). Where no end group is shown, it is not given here.
Endpoint: pIC50
Answers are plain numbers, as −log10 of the molar value.

Query block: Look up pIC50 for this sequence: GCKKLNSYCTRQHRECCHGLVCRRPDYGIGRGILWKCTRARK (disulfide 2-17, 9-22, 16-37) [Ms11a-3]
Result block: 5.32
